Recorded values, source paper PMC6724035.

- Protocol details: in vivo
- Applied conditions: female, BALB/c nu/nu, mouse, tumour and thyroid, iv, total radioactivity
- Procedure: Animal studies were planned and performed in agreement with EU Directive 2010/63/EU for animal experiments and Swedish national legislation concerning protection of laboratory animals. […] Mice were euthanized followed by dislocation of their neck at 0.5 h after injection and blood samples were collected by heart puncture. […] The organ radioactivity was measured in a gamma-counter and uptake values of organs were calculated as percentage of injected dose per gram tissue (% ID/g). […]
Where a SMILES comes first, the peptide text is derived from it. [ ]: non-standard residue; d: D form. Tyr(3-I) = N[C@@H](Cc1ccc(O)c(I)c1)C(=O)O; Sta = CC(C)C[C@H](N)[C@@H](O)CC(=O)O; AEEA = NCCOCCOCC(=O)O
Outcome measure: tissue to tissue ratio at 3 h

[
  {
    "Molecule": "CC(C)C[C@H](NC(=O)C[C@H](O)[C@H](CC(C)C)NC(=O)[C@H](Cc1c[nH]cn1)NC(=O)CNC(=O)[C@@H](NC(=O)[C@H](C)NC(=O)[C@H](Cc1c[nH]c2ccccc12)NC(=O)[C@H](CCC(N)=O)NC(=O)[C@@H](Cc1ccccc1)NC(=O)COCCOCCNC(=O)[C@@H](N)Cc1ccc(O)c(I)c1)C(C)C)C(N)=O [[^125I]I-Tyr-PEG2-RM26] (H-[Tyr(3-I)][AEEA][dF]QWAVGH[Sta]L-NH2)",
    "Test result": 1.2
  }
]

###

- Protocol details: in vivo
- Applied conditions: female, BALB/c nu/nu, mouse, tumour and lung, iv, total radioactivity
Where a SMILES comes first, the peptide text is derived from it. [ ]: non-standard residue; d: D form. Tyr(3-I) = N[C@@H](Cc1ccc(O)c(I)c1)C(=O)O; Sta = CC(C)C[C@H](N)[C@@H](O)CC(=O)O; AEEA = NCCOCCOCC(=O)O

[
  {
    "Molecule": "CC(C)C[C@H](NC(=O)C[C@H](O)[C@H](CC(C)C)NC(=O)[C@H](Cc1c[nH]cn1)NC(=O)CNC(=O)[C@@H](NC(=O)[C@H](C)NC(=O)[C@H](Cc1c[nH]c2ccccc12)NC(=O)[C@H](CCC(N)=O)NC(=O)[C@@H](Cc1ccccc1)NC(=O)COCCOCCNC(=O)[C@@H](N)Cc1ccc(O)c(I)c1)C(C)C)C(N)=O [[^125I]I-Tyr-PEG2-RM26] (H-[Tyr(3-I)][AEEA][dF]QWAVGH[Sta]L-NH2)",
    "tissue to tissue ratio at 3 h": 0.6
  }
]

###

- Protocol details: in vivo
- Applied conditions: mouse, lung, iv, 40 pmol, Uptake, lung, 0.5 h after injection; 40 pmol i.v.
Where a SMILES comes first, the peptide text is derived from it. [ ]: non-standard residue; d: D form. Tyr(3-I) = N[C@@H](Cc1ccc(O)c(I)c1)C(=O)O; Sta = CC(C)C[C@H](N)[C@@H](O)CC(=O)O; AEEA = NCCOCCOCC(=O)O
Outcome measure: tissue uptake at 0.5 h (%ID/g)

[
  {
    "Compound": "CC(C)C[C@H](NC(=O)C[C@H](O)[C@H](CC(C)C)NC(=O)[C@H](Cc1c[nH]cn1)NC(=O)CNC(=O)[C@@H](NC(=O)[C@H](C)NC(=O)[C@H](Cc1c[nH]c2ccccc12)NC(=O)[C@H](CCC(N)=O)NC(=O)[C@@H](Cc1ccccc1)NC(=O)COCCOCCNC(=O)[C@@H](N)Cc1ccc(O)c(I)c1)C(C)C)C(N)=O [[^125I]I-Tyr-PEG2-RM26] (H-[Tyr(3-I)][AEEA][dF]QWAVGH[Sta]L-NH2)",
    "Test result": 9.1
  },
  {
    "Compound": "CC(C)C[C@H](NC(=O)C[C@H](O)[C@H](CC(C)C)NC(=O)[C@H](Cc1c[nH]cn1)NC(=O)CNC(=O)[C@@H](NC(=O)[C@H](C)NC(=O)[C@H](Cc1c[nH]c2ccccc12)NC(=O)[C@H](CCC(N)=O)NC(=O)[C@@H](Cc1ccccc1)NC(=O)COCCOCCNC(=O)CN1CCN(CC(=O)O)CCN(CC(=O)O)CCN(CC(=O)O)CC1)C(C)C)C(N)=O [[^111In]In-DOTA-PEG2-RM26, metal not drawn, reference compound]",
    "Test result": 1.8
  }
]
